# EC50 per entry
- Target Of Assay: T1, TIGIT on TIGIT-over expressing NFAT-Luc/Jurkat effector cells (GenScript reporter cell line) (UniProt Q495A1 22-244, limits assumed)
- T1 sequence (looked up): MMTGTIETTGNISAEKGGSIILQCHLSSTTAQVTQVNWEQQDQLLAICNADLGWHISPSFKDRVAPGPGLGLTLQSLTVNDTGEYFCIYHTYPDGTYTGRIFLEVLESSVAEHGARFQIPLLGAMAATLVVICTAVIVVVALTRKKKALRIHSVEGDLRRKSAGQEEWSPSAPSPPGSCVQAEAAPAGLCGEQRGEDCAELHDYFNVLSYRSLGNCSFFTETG
- Assay: cell-based or functional assay
All answers are understood in nM, so give the number only.

INSERT INTO results (binder, assay_endpoint, recorded_result) VALUES
  ('TIGIT-18 chimeric antibody (antibody, human IgG1, kappa, V domains shown, Full-length chimeric IgG1 kappa) VH: QVQLQQPGAELVRPGASVKLSCKASGYSFTSYWMNWVKQRPGQGHEWIGMIHLSNSETRLNQNFLDKATLTVDKSSSTVYLQLSSPTSEDSAVYYCARERDYYGSSYFDYWGQGTTLTVSS VL: DIVMTQSPASLVVSLGQRATISCRTSQSVSTSSYSYMHWYQQKPGQPPKLLIKNASNLESGVPARFSASGSGTDFTLNIHPVEEEDAATYYCQHSWEIPRTFGGGTKLEIKR', 'EC50', 31.3);

Alright, here's another binder for you.
// query Give reported EC50 value for Hu1217-2-2 (anti-TIGIT positive control antibody) (antibody, V domains shown) VH: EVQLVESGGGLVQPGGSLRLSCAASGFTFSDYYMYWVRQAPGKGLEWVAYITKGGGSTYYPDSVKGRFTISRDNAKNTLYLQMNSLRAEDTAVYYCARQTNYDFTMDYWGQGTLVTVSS VL: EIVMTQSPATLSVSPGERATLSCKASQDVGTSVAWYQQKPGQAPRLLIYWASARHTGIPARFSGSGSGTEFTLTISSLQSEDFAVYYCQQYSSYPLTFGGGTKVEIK
// result 15.6
